# target_of_assay: N-terminal HiBiT tagged BCL6 (Homo sapiens)
# Construct: expressed in transfected cells; host or cells: HT1080 (ATCC CCL-121), stably transduced with lentivirus pLV-UBC-N-HiBiT-BCL6-PGK-puro
# procedure_summary: HiBiT based degradation assay
# Assay type: cell-based
# condition_set: HT1080 cells expressing N-terminal HiBiT tagged BCL6; 5 hours of incubation; four-parameter logistic model; read-out: EC50 (5 hr)
metric: DC50

Reference set (2 entries):
CNC(=O)COc1cc2cc(Nc3nc(N4CCC(F)(CN5CCN(c6cccc7c(C8CCC(=O)NC8=O)nn(C)c67)C[C@@H]5C)CC4)ncc3Cl)cnc2n(C(C)C)c1=O (stereo partly drawn) [Compound 189a] ... 10 to 100 nM
CNC(=O)COc1cc2cc(Nc3nc(N4CCC5(CCN(CC6CCN(c7cc8c(cc7F)c(C7CCC(=O)NC7=O)nn8C)CC6)CC5)CC4)ncc3Cl)cnc2n(C(C)C)c1=O (stereo not drawn) ... 10 to 100 nM

[ask] State the recorded DC50 for this entry: CNC(=O)COc1cc2cc(Nc3nc(NC4CCC5(CC4)CN(c4ccc6c(C7CCC(=O)NC7=O)nn(C)c6c4)C5)ncc3Cl)cnc2n(C(C)C)c1=O (stereo not drawn)
[reply] < 10 nM

# credit: patent US20260241012A1
